Source: ChEMBL document CHEMBL3351801

# ASSAY TARGET: Nuclear factor NF-kappa-B complex (Homo sapiens) (UniProt Q00653+P19838+Q04206)
# Sequence (P19838 whole entry, looked up): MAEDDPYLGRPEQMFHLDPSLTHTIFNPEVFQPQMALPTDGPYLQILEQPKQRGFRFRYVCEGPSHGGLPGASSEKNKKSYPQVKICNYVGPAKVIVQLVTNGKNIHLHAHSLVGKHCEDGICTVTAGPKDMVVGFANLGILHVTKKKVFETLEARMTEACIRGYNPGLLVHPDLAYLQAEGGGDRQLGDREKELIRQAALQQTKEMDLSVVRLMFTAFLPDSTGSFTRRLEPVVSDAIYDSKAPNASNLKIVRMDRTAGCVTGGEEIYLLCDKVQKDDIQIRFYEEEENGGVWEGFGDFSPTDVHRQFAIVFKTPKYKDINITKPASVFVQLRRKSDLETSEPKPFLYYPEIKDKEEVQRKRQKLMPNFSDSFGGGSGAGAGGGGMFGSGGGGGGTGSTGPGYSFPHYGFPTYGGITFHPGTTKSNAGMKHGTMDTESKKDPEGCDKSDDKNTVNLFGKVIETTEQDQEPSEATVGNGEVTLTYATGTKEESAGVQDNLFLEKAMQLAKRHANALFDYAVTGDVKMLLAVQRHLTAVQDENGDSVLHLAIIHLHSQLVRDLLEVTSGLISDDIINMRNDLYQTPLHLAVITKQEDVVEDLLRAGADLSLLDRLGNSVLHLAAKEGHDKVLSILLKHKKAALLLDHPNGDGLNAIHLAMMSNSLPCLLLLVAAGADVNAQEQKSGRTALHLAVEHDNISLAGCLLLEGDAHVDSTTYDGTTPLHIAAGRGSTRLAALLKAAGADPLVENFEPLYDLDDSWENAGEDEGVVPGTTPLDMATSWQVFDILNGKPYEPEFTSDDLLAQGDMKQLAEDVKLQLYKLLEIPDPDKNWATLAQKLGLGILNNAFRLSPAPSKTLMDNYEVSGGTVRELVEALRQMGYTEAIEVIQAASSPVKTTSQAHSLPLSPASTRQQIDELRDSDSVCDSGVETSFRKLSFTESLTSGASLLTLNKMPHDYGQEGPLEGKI
# Sequence (Q00653 whole entry, looked up): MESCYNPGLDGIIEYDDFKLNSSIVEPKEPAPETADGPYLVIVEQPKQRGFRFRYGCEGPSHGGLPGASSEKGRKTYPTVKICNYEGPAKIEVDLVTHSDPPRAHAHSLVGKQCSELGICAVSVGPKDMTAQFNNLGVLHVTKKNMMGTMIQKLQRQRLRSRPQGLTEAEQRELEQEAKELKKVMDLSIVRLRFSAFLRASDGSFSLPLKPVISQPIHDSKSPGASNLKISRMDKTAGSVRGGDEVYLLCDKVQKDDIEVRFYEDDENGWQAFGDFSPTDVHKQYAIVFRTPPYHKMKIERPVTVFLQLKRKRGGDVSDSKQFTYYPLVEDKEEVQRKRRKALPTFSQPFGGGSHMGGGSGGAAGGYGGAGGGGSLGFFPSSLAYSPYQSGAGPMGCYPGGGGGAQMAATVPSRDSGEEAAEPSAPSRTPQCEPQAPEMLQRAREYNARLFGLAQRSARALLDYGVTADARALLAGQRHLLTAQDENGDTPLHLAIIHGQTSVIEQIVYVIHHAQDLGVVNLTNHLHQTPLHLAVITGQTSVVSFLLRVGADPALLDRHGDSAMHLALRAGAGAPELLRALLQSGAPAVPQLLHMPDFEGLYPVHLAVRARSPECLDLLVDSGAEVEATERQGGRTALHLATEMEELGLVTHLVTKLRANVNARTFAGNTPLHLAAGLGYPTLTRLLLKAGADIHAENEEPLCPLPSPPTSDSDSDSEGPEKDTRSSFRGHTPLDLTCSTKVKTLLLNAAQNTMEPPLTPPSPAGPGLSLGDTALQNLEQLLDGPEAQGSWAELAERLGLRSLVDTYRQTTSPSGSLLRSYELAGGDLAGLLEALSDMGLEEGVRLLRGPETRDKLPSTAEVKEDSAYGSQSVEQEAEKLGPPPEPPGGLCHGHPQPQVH
# Sequence (Q04206 whole entry, looked up): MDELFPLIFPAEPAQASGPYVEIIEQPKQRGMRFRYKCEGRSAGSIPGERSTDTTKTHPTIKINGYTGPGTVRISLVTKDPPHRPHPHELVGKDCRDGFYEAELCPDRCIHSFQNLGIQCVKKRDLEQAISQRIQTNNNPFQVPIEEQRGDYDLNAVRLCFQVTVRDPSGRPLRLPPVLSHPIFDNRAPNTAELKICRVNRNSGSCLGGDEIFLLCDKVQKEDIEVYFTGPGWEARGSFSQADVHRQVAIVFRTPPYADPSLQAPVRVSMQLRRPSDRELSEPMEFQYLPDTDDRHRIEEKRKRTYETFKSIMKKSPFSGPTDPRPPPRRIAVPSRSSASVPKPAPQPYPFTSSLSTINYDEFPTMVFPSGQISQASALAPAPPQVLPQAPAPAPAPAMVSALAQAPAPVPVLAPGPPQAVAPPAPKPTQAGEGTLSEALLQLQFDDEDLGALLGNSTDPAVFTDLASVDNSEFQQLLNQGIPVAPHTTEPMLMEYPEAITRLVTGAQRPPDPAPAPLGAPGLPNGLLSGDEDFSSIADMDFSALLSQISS
# ASSAY PROCEDURE: Inhibition of LPS-induced NF-kappaB (unknown origin) expressed in HEK293 cells at 10 ug/ml after 4 hrs by luciferase reporter gene assay relative to LPS-treated control
# Format: cell-based
Task for the reader: assign each of the following compounds its reported Ratio.
Just the number, please, no unit after it.

I would be grateful if you could share the reported Ratio for `COC(=O)[C@H](OC(C)=O)[C@H]1[C@]2(C)C[C@]3(O)[C@@](O)([C@@H](OC(=O)C(C)C)[C@]45OC6(C)O[C@H]([C@H](OC(C)=O)[C@]78C[C@@]74[C@@H](OC(C)=O)C(=O)O[C@H]8c4ccoc4)[C@]5(O6)[C@]13C)[C@H]2OC(C)=O` .
0.55

I would be grateful if you could share the reported Ratio for `CCC12C[C@@H]3[C@](C)([C@@H](OC(C)=O)c4ccoc4)[C@@H](OC(C)=O)[C@@H](OC(C)=O)[C@@]4(O)[C@]3(O1)[C@H](O2)[C@@]1(OC(C)=O)[C@@H](OC(C)=O)[C@@]2(C)C[C@@]1(O)[C@@]4(COC(C)=O)[C@H]2CC(=O)OC` .
0.38

I would be grateful if you could share the reported Ratio for `CC(=O)O[C@@H]1[C@H](OC(C)=O)[C@@](C)([C@@H](OC(C)=O)c2ccoc2)[C@H]2CC3(C(C)C)O[C@@H]4[C@@]5(OC(C)=O)[C@@H](OC(C)=O)[C@@]6(C)C[C@@]5(O)[C@]5(COC(=O)C[C@@H]65)[C@]1(O)[C@@]24O3` .
0.25

I would be grateful if you could share the reported Ratio for `CCC12C[C@@H]3[C@](C)([C@@H](OC(C)=O)c4ccoc4)[C@@H](OC(C)=O)[C@@H](OC(C)=O)[C@@]4(O)[C@]3(O1)[C@H](O2)[C@@]1(OC(C)=O)[C@@H](OC(C)=O)[C@@]2(C)C[C@@]1(O)[C@@]4(C)[C@H]2CC(=O)OC` .
0.39

I would be grateful if you could share the reported Ratio for `COC(=O)C[C@H]1[C@]2(C)C[C@]3(O)[C@@](O)([C@@H](OC(=O)C(C)C)[C@]45OC6(C)O[C@H]([C@H](O)[C@]78C[C@@]74[C@@H](OC(C)=O)C(=O)O[C@H]8c4ccoc4)[C@]5(O6)[C@]13C)[C@H]2OC(C)=O` .
0.1

I would be grateful if you could share the reported Ratio for `COC(=O)[C@H](OC(C)=O)[C@H]1[C@]2(C)C[C@]3(O)[C@@](O)([C@H]4OC(=O)[C@@H]5O[C@@H](c6ccoc6)[C@@]67C[C@@]56[C@]4(O)[C@](O)([C@H](OC(=O)C(C)C)[C@@H]7OC(C)=O)[C@]13C)[C@H]2OC(C)=O` .
0.27

I would be grateful if you could share the reported Ratio for `COC(=O)C[C@H]1[C@]2(C)C[C@@]34OC5(C)O[C@]6([C@@H]7/C(=C(\C)O)C(=O)O[C@@H](c8ccoc8)[C@]7(C)[C@@H](OC(C)=O)[C@@H](O)[C@]6(O5)[C@]13COC(C)=O)[C@H](OC(C)=O)[C@@]4(OC(C)=O)[C@H]2OC(C)=O` .
0.33

I would be grateful if you could share the reported Ratio for `CCC1=C[C@@H]2[C@](C)([C@@H](OC(C)=O)c3ccoc3)[C@@H](OC(C)=O)[C@@H](OC(C)=O)[C@@]34OC(=O)O[C@@]23[C@H](O1)[C@@]1(O)[C@@H](O)[C@@]2(C)C[C@@]1(O)[C@@]4(C)[C@H]2CC(=O)OC` .
0.14

I would be grateful if you could share the reported Ratio for `CCC12C[C@@H]3[C@](C)([C@@H](OC(C)=O)c4ccoc4)[C@@H](O)[C@@H](OC(C)=O)[C@@]4(O)[C@]3(O1)[C@H](O2)[C@@]1(OC(C)=O)[C@@H](O)[C@@]2(C)C[C@@]1(O)[C@@]4(C)[C@H]2[C@@H](O)C(=O)OC` .
0.23
